Data provenance: the supplement of paper PMC9170038

Each record here notes measured apparent KD of MS2 coat protein.
Tested on: MS2 coat protein
assay_info: apparent KD of MS2 coat protein; designed switch direction (-1 OFF switch, 1 ON switch): -1; higher = weaker reporter binding
stated_conditions: Eterna round: R95; input ligand: none

chain_sequence	tested_on	apparent KD of MS2 coat protein
GCCAGAGCAGGAUAUUGAUAAAUUCACAUGAGGAUCACCCAUGUCCAGCGAAAGCUGGAACGAGAAGGGCUCUGGC [Mat - Exclusion 5 - Eli mod - D87] (puzzle: Exclusion 5)	MS2 coat protein	13.7 nM
GGUACUAACACGAGAGUGUUAGUACUAUAAGCUUGUGUUACAUGAGGAUCACCCAUGUCCUCAUAGGCUCGUCUUAU [Mat - Sensor v3 - Turn-off var 2 - D80] (puzzle: Sensor v3, turn-off variant 2)	MS2 coat protein	231 nM
GGAGCGAUUCUCUUAGCUGACAUGAGGAUCACCCAUGUAUGCAAGCUCUUAUUUUGCUCGUCUUACCGGGAAUUGCU [Uslainar] (puzzle: Sensor v3, turn-off variant 1)	MS2 coat protein	13.2 nM
AAUGCGAGUGUUAGGAUAUACAAGGAUCCAUAUUUGUAGAAGGAACAUGAGGAUCACCCAUGUAAGGGAAUAAA [Enususxebe] (puzzle: Brourd's mod of Exclusion 4)	MS2 coat protein	65.7 nM
AGUAACCGUCACGAAAGUGAUGGUUACAUAAGCAUAUGUACAUGAGGAUCACCCAUGUCCUCAACUGCUCGUUUUAU [Sensor 3 - 56] (puzzle: Sensor v3, turn-off variant 2)	MS2 coat protein	349 nM
AAAAAGCGAGGAUAUACAGGAAAAGAAAAGAAAAGAAAAGCACAUGAGGAUCACCCAUGUAGAAGGCGCGAAAA [Exclusion 2 #3] (puzzle: Exclusion 2)	MS2 coat protein	20.8 nM
AAAGAACAUGAGGAUCACCCAUGUGAGGAUAUGCGAAAACCGCUAACAAACCAGACGGGCAGAAGGCAUAUGGU [Leistequ] (puzzle: Exclusion 1)	MS2 coat protein	63.7 nM
GCCAGAGCAGGAUAUUCAAUAUCACACAUGAGGAUCACCCAUGUCCAGCGAAAGCUGGAGGGAGAAGGGCUCUGGC [Fiskers Ex 5 - 12] (puzzle: Exclusion 5)	MS2 coat protein	88.2 nM
UGGGUUCUCCAUAGAAGUAACAUGAGGAUCACCCAUGUAGGGCAAGUUUUUUGCUCGUCAUAGGUUGUGGGUUUGGA [JR_SV3TOV1_Sub018] (puzzle: Sensor v3, turn-off variant 1)	MS2 coat protein	660 nM
GUGAAGAAGUUAGUGGCCUACAUGAGGAUCACCCAUGUGAGGGAAAUGUCGAGGCGGAGGUUGUGUGCUCGUCUGUA [JR_SV3TOV1_Sub041] (puzzle: Sensor v3, turn-off variant 1)	MS2 coat protein	26.4 nM
AAGAAACAUGAGGAUCACCCAUGUGAGGAUAUGAUGAAGAAAAGAAAAGAAAGAAGAUUCAGAAGGCACAAAGG [salish99-ex1_r3_055] (puzzle: Exclusion 1)	MS2 coat protein	80.5 nM
AAGUACUACAAGCUUCGGGACAUGAGGAUCACCCAUGUUCGUCUUAUUGAUCUAGGUACGCUGACGUACCUAGAUCU [Mat - Sensor v3 - turn-off var 1 - JL Mod - D11] (puzzle: Sensor v3, turn-off variant 1)	MS2 coat protein	14.2 nM
GUGUGCAGAGGAUAUACAGAGGAAAAUAAUAAAUAAUAUUGACAUGAGGAUCACCCAUGUAGAAGGCUGAGUGU [Excluse me!! 25 - Jieux - Exclusion 2] (puzzle: Exclusion 2)	MS2 coat protein	39.7 nM
UGUACGAUGCGUGCUGACAUGCGUCGUGCAGCAGGUGUUACAUGAGGAUCACCCAUGUCCUCAUUUGCUCGUCUUAU [SL-sv3-2.08 JL mod] (puzzle: Sensor v3, turn-off variant 2)	MS2 coat protein	337 nM
UCCGAACAUGAGGAUCACCCAUGUGAGGAUAUCCCGAGAUUAAAUGCCGCAAGAAGGCGGAGAAGGCGCAUGGG [Biditiinen] (puzzle: Exclusion 1)	MS2 coat protein	19.5 nM
AUAACAAGCUUUUUGUUCGUAGAACAUGACGCUCGAGUCACAUGAGGAUCACCCAUGUCAUCCAGAUUGAUAGUUGA [JR_SV3TOV2_Sub059] (puzzle: Sensor v3, turn-off variant 2)	MS2 coat protein	44.3 nM

###

Tested on: MS2 coat protein
assay_info: apparent KD of MS2 coat protein; designed switch direction (-1 OFF switch, 1 ON switch): -1; higher = weaker reporter binding
stated_conditions: Eterna round: R95; input ligand: microRNA oligo, concentration not stated
The label depends only on apparent KD of MS2 coat protein: 1.0 if it is at least 0.03 µM, 0.0 if it is smaller.

chain_sequence	assigned_class
UGAGGACAUGAGGAUCACCCAUGUAAGGAUAUGCGGAGAGCUUGGAGAGGUUGAGGAGGCAGAAGGUACAGGAC [JR_Exclu1_Sub048] (puzzle: Exclusion 1)	1.0
GAUACACAUGAGGAUCACCCAUGUGAGGAUAUGCGUACGUUGUCCGUAGGCGACGUGCGCAGAAGGCGCUUGGU [Mat - Mod of JL D98] (puzzle: Exclusion 1)	1.0
ACCUCACAUGAGGAUCACCCAUGUCAGGAUAUGUACCUGGCCAAGACAAAAGCCAGAAGCAGAAGGGACUGCGG [Enrionerdi] (puzzle: Exclusion 1)	1.0
AAUGAUGAUGUGAGGAUAUACAUAGUUAGAAAGUAGUAGAAGGCACAUGAGGAUCACCCAUGUAGAUGUAAGGU [JR_BME4_Sub001] (puzzle: Brourd's mod of Exclusion 4)	0.0
UUUUAACAUGAGGAUCACCCAUGUGAGGAUAUCGAAAUUUAUAUUAAUAUUAUUUUUUCGAGAAGGCACAUUUU [JMF 49] (puzzle: Exclusion 1)	1.0
GUGAAGAAGUUAGUGGCCUACAUGAGGAUCACCCAUGUGAGGGAAAUGUCGAGGCGGAGGUUGUGUGCUCGUCUGUA [JR_SV3TOV1_Sub041] (puzzle: Sensor v3, turn-off variant 1)	0.0
AGUGGGCUAGGAUAUCGAUGAACUCACAUGAGGAUCACCCAUGUGUCUUCGGUGGGCUCACGAGAAGGAGUAAGUU [Teanislaa] (puzzle: Exclusion 5)	0.0
AGAAAGCAAGGAUAUACGAGGAGAAGGUGGAAAGUUAAAGGACAUGAGGAUCACCCAUGUAGAAGGUGCGAGAA [JR_Exclu2_Sub043] (puzzle: Exclusion 2)	1.0
GUAGGGUCAGGAUAUACUGGCUGAGGGAUGUAUUGUAGUUGGUAGAAGGGACAUGAGGAUCACCCAUGUAAGAA [JR_Exclu4_Sub056] (puzzle: Exclusion 4)	1.0
GUGUACAGAGGAUAUGCACGAGUAGUUACGAAAGUAACUAUACAUGAGGAUCACCCAUGUAGAAGGCUGUACAC [Dot plot directed v3] (puzzle: Exclusion 2)	0.0
CAGAAACAUGAGGAUCACCCAUGUGAGGAUAUGCGUACGUUGUCCGUAGGCGACGUGCGCAGAAGGCACAAAGG [Mat - Mod of JL D84] (puzzle: Exclusion 1)	1.0
GAUAGAGAGCAGGAUAUCUUAGAUAUGUAAUAUAGAGAAGGGCUCACAUGAGGAUCACCCAUGUGGUCCUAGAU [JL Dibiri mod 14] (puzzle: Exclusion 6)	0.0
GUGAAGUGAGGAUAUACGAGAGAGGCUGAACCUGGAGAGAAGUAGAAGGCACAUGAGGAUCACCCAUGUAAGGA [JR_Exclu4_Sub020] (puzzle: Exclusion 4)	1.0

###

Test system: MS2 coat protein
assay_info: apparent KD of MS2 coat protein; higher = weaker reporter binding
stated_conditions: Eterna round: R107; input ligand: theophylline 20 uM
Each record here notes measured apparent KD of MS2 coat protein.

chain_sequence	apparent KD of MS2 coat protein, nM
GGUUGGUGUAGAGAUAUAUUGAUUACUGAAGGAGCGGGAACAAACCCAGGUAGGUCGCAGAGAUCCACAUGAGGAUCACCCAUGU [!0.N]	58.3
UCGUGUGUUUCGGAUACCAGUGAAAUCGAUACAUGAGGAUCACCCAUGUGAGAGGAUGUACACCCUUGGCAGCUGUCUGUAUCGG [asczmullin]	58.6
UUUAUUUAUUUAUUUAUUUAUUUAACAGAAGGAGCGUGGAUUAACACAGGUAGGUCGCUGACAUGAGGAUCACCCAUGUAUUAUU [SSAA #1]	48
AGAUGAGUCACGGCCGCCACUCUUAUCAGGAUCACCCAUGGUUGACAUGAGGAUCACCCAUGUAUGAGGACCGGGUGAUGAGCAU [XTryp B #1]	15.9
CAGAACAUGAGGAUCACCCAUGUUAGGGAUACCAGCUCAGACAUGGGCCCUUGGCAGCUCUAUGGCUGACGAAAGUCAGCAUCUG [#16 SameState-TheophyllineA]	874
AAUUCCUCACAUGAGGAUCACCCAUGUGAAGGAGCGCCGAAUAAGGCAGGUAGGUCGCACAUGGAAACCGCUGCGAAAGCAGCAA [MAT - Exclusion Arginine A - Mod of Eli - D25]	33.2
AGGGAACAUGAGGAUCACCCAUGUGCCGAUACCAGUGAUUUUCAGCACCCUUGGCAGCGGAACCUUUGUUAUAUUAUUCUUAGGG [theeternabot_sameState_MS2_Theo_A_25]	42.4
AAUCUGAUUGCGGCCGCCACUAAUUUUCCAUGAGUAUUGCAAUUACAUGAGGAUCACCCAUGUCAUAGGACCGGGCAUGACAUCU [theeternabot_sameState_MS2_Trp_B_45]	202
AUCUCAUAGAGUGAUACCAGACUACAUGAGGAUCACCCAUGUUACAUUUAAAUAUCAUUUGUCCCUUGGCAGCACAUGAAGUACA [JR_Nu_ExcTheophyB_Sub018]	37.3
UCACUCCUGAUGGAUACCAGUUACUAACGCAACAUGAGGAUCACCCAUGUGAACACUCAGAACCCUUGGCAGCCAGGAGAACGAA [theeternabot_sameState_MS2_Theo_B_30]	60.2
GGGUAAGAUCCGGAUACCAGCGAACAUGAGGAUCACCCAUGUGAAAUAAGAUAGACUAAACGCCCUUGGCAGCCGAAAUAGCGUU [Same State Theophylline B GF 4]	84.7
